System: Rattus norvegicus
Assay: Gastrointestinal toxicity in albino rat assessed as ulcer index at 0.28 mmol/kg, po (reference value: 0.60 +/- 0.05)
Format: organism-based
Details: in vivo
Grouping key: UI. Bins: range 1: < 3; range 2: ≥ 3 and < 6; range 3: ≥ 6

>>> group_label("COc1ccc(-c2nnc(SCC(=O)c3ccccc3)n2-c2ccccc2)cc1OC")
"range 3"
>>> group_label("COc1ccc(-c2nnc(SC/C(=N/O)c3ccccc3)n2-c2ccccc2)cc1OC")
"range 2"
>>> group_label("O=C(CSc1nnc(-c2ccccc2)n1-c1ccccc1)c1ccccc1")
"range 3"
>>> group_label("CCn1c(SCC(=O)c2ccccc2)nnc1-c1ccc(OC)c(OC)c1")
"range 3"
>>> group_label("C=CCn1c(SCC(=O)c2ccccc2)nnc1-c1ccc(OC)cc1")
"range 2"
>>> group_label("C=CCn1c(SC/C(=N\\O)c2ccccc2)nnc1-c1ccc(OC)c(OC)c1")
"range 1"
>>> group_label("CCn1c(SC/C(=N/O)c2ccccc2)nnc1-c1ccccc1")
"range 1"
>>> group_label("C=CCn1c(SCC(=O)c2ccccc2)nnc1-c1ccc(OC)c(OC)c1")
"range 2"
>>> group_label("CCn1c(SCC(=O)c2ccccc2)nnc1-c1ccccc1")
"range 2"
>>> group_label("C=CCn1c(SC/C(=N/O)c2ccccc2)nnc1-c1cc(OC)c(OC)c(OC)c1")
"range 2"
>>> group_label("COc1ccc(-c2nnc(SCC(=O)c3ccccc3)n2-c2ccccc2)cc1")
"range 3"
>>> group_label("CCn1c(SC/C(=N/O)c2ccccc2)nnc1-c1ccc(OC)cc1")
"range 1"
>>> group_label("CCn1c(SCC(=O)c2ccccc2)nnc1-c1cc(OC)c(OC)c(OC)c1")
"range 2"
>>> group_label("C=CCn1c(SC/C(=N/O)c2ccccc2)nnc1-c1ccc(OC)cc1")
"range 1"
>>> group_label("CCn1c(SC/C(=N/O)c2ccccc2)nnc1-c1ccc(OC)c(OC)c1")
"range 1"
>>> group_label("O/N=C(/CSc1nnc(-c2ccccc2)n1-c1ccccc1)c1ccccc1")
"range 1"
>>> group_label("COc1cc(-c2nnc(SCC(=O)c3ccccc3)n2-c2ccccc2)cc(OC)c1OC")
"range 2"
>>> group_label("CCn1c(SC/C(=N/O)c2ccccc2)nnc1-c1cc(OC)c(OC)c(OC)c1")
"range 2"
>>> group_label("C=CCn1c(SCC(=O)c2ccccc2)nnc1-c1cc(OC)c(OC)c(OC)c1")
"range 3"
>>> group_label("C=CCn1c(SC/C(=N\\O)c2ccccc2)nnc1-c1ccccc1")
"range 1"
>>> group_label("C=CCn1c(SCC(=O)c2ccccc2)nnc1-c1ccccc1")
"range 1"
>>> group_label("CCn1c(SCC(=O)c2ccccc2)nnc1-c1ccc(OC)cc1")
"range 3"

====

Reported values of inhibition in vivo at 280 µmol/kg for individual entries
Tested on: Rattus norvegicus
Assay: Antiinflammatory activity in albino rat assessed as inhibition of carrageenan-induced paw edema at 0.28 mmol/kg, po after 1 hr relative to control
Format: functional
Measure: inhibition in vivo at 280 µmol/kg

>>> observed("CCn1c(SC/C(=N/O)c2ccccc2)nnc1-c1ccccc1")
"65%"
>>> observed("C=CCn1c(SC/C(=N/O)c2ccccc2)nnc1-c1cc(OC)c(OC)c(OC)c1")
"61%"
>>> observed("C=CCn1c(SCC(=O)c2ccccc2)nnc1-c1ccc(OC)c(OC)c1")
"61%"
